I'd appreciate it if you could supply EC50 values for the items below.
# SYSTEM_UNDER_TEST: human mGluR3 (hmGluR3) (Homo sapiens)
# Sequence (Q14832 23-879): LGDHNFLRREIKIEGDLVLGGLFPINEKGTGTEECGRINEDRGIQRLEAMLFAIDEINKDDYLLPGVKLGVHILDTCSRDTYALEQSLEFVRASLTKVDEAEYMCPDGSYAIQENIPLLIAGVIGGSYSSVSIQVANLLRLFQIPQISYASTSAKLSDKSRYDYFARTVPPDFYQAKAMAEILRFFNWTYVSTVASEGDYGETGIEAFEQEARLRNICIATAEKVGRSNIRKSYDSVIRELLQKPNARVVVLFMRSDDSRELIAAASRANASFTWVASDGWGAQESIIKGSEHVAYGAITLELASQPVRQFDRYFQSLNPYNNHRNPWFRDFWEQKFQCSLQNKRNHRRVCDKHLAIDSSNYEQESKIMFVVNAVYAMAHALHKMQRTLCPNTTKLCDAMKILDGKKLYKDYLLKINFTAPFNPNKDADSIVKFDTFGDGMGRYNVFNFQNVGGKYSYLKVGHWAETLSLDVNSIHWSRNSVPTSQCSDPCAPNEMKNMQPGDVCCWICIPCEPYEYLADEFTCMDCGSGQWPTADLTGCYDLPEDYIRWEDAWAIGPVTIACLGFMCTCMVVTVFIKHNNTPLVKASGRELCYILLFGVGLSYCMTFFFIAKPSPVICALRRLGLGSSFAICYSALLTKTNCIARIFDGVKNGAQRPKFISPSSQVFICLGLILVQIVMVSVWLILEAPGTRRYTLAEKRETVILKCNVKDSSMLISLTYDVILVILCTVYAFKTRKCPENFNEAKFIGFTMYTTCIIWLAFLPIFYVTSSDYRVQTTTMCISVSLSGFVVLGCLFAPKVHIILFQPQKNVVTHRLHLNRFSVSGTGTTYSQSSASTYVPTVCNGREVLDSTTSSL
# TEST_DESCRIPTION: Human mGluR3 positive allosteric modulator evaluation using Ca++ functional assay
# TEST_CONTEXT: hmGluR3 transiently over-expressed in HEK-293 cells; stimulated by EC50 glutamate concentration; intracellular Ca2+ (Fluo4AM, FLIPR Tetra)

Item: CN1C(=O)c2cccn2-c2cc(C3=CCN(c4ccncn4)CC3)ccc2C12CC2 [Example 47] Test system: human mGluR3 (hmGluR3) (Homo sapiens) Read-out: EC50 Value: ?
100 to 1000 nM

Lab note: need EC50 with human mGluR3 (hmGluR3) (Homo sapiens) for entry CN(C)c1ccc2c(c1)-n1cc(-c3ccccc3)cc1C(=O)N(C)C21CC1 [Example 115] , please look it up.
> 1000 nM

Request body: readout EC50, system human mGluR3 (hmGluR3) (Homo sapiens), query CN1C(=O)c2cc(-c3ccccc3)nn2-c2cc(-c3cn[nH]c3)ccc2C12CC2 [Example 134] . Return the value.
100 to 1000 nM

Kindly state the measured EC50 obtained for CN1C(=O)c2cc(-c3ccccc3)nn2-c2cc(-c3cnco3)ccc2C12CC2 [Example 132] with human mGluR3 (hmGluR3) (Homo sapiens).
100 to 1000 nM

Any idea what EC50 came out for CN1C(=O)c2cccn2-c2cc(-c3cccc(C#N)c3)ccc2C12CC2 [Example 44] on human mGluR3 (hmGluR3) (Homo sapiens)?
< 100 nM

Record lookup: for human mGluR3 (hmGluR3) (Homo sapiens), what EC50 belongs to Cc1ncccc1-c1ccc2c(c1)-n1cc(-c3ccccc3)nc1C(=O)N(C)C2 [Example 166] ?
100 to 1000 nM

I'm curious: which EC50 was measured for CN(C)c1ccc(-c2ccc3c(c2)-n2cc(-c4ccccc4)cc2C(=O)N(C)C32CC2)cn1 [Example 114] tested on human mGluR3 (hmGluR3) (Homo sapiens)?
< 100 nM

# value lookup — system human mGluR3 (hmGluR3) (Homo sapiens), readout EC50, item Cc1ncccc1-c1ccc2c(c1)-n1cc(CC3CCCC3)cc1C(=O)N(C)C21CC1 [Example 196]
100 to 1000 nM

Form: Entry = CN1C(=O)c2cc(-c3nnco3)cn2-c2cc(Br)ccc2C12CC2 [Example 189] | System = human mGluR3 (hmGluR3) (Homo sapiens) | EC50 = ____
> 1000 nM

Notebook entry, human mGluR3 (hmGluR3) (Homo sapiens) assay: EC50 of CN1C(=O)c2cc(-c3ccccc3)cn2-c2cc(-c3ccc(F)cn3)ccc2C12CC2 [Example 110] = ?
< 100 nM

# get_value(readout= EC50, system= human mGluR3 (hmGluR3) (Homo sapiens)) for CN1C(=O)c2cccn2-c2cc(-c3cccnc3C(F)(F)F)ccc2C12CC2 [Example 36]
100 to 1000 nM

Lab note: need EC50 for Cc1cc(-c2ccc3c(c2)-n2nc(-c4ccccc4)cc2C(=O)N(C)C32CC2)cc(C)n1 [Example 121] on human mGluR3 (hmGluR3) (Homo sapiens), anyone have it?
100 to 1000 nM

Requested read-out EC50, target or system human mGluR3 (hmGluR3) (Homo sapiens), entry CN1C(=O)c2cccn2-c2ccc(N3CCOCC3)cc2C12CC2 [Example 88]
> 1000 nM

Give the reported EC50 for CN1C(=O)c2cccn2-c2cc(-c3ncccc3F)ccc2C12CC2 [Example 66] (system: human mGluR3 (hmGluR3) (Homo sapiens)).
> 1000 nM

Under human mGluR3 (hmGluR3) (Homo sapiens): EC50 value of CN1C(=O)c2cc(-c3ccccc3)cn2-c2ccc(Br)cc2C12CC2 [Example 16] ?
> 1000 nM

Lab request: please report EC50 under test system human mGluR3 (hmGluR3) (Homo sapiens) for CCc1ncccc1-c1ccc2c(c1)-n1cc(C)cc1C(=O)N(C)C21CC1 [Example 199]
< 100 nM

For human mGluR3 (hmGluR3) (Homo sapiens), provide EC50 of CN1C(=O)c2cc(-c3nnco3)cn2-c2cc(-c3cccnn3)ccc2C12CC2 [Example 193] please.
100 to 1000 nM

API: value(readout=EC50, system=human mGluR3 (hmGluR3) (Homo sapiens)) for record CN1C(=O)c2cccn2-c2cc(Br)cc(F)c2C12CC2 [Example 7]
> 1000 nM

# returns recorded EC50 (system: human mGluR3 (hmGluR3) (Homo sapiens)) for CN(C)c1ccc(-c2ccc3c(c2)-n2cc(-c4nnco4)cc2C(=O)N(C)C32CC2)cn1 [Example 190]
< 100 nM

Lookup: EC50 / human mGluR3 (hmGluR3) (Homo sapiens) / CN1C(=O)c2cc(-c3nnco3)cn2-c2cc(-c3ccc(F)nc3)ccc2C12CC2 [Example 187]
< 100 nM

Param readout = EC50; param system = human mGluR3 (hmGluR3) (Homo sapiens); param query = CCc1ccc(-c2ccc3c(c2)-n2cc(-c4ccccc4)cc2C(=O)N(C)C32CC2)cn1 [Example 112] ; response: value
< 100 nM

Given the entry CN1C(=O)c2cc(-c3ccccc3)cn2-c2cc(-c3cccnc3C(F)(F)F)ccc2C12CC2 [Example 100] , what EC50 was observed with human mGluR3 (hmGluR3) (Homo sapiens)?
> 1000 nM

Return EC50 measured with human mGluR3 (hmGluR3) (Homo sapiens) given this molecule: Cc1ncccc1-c1ccc2c(c1)-n1c(F)ccc1C(=O)N(C)C21CC1 [Example 81]
< 100 nM

// fetch human mGluR3 (hmGluR3) (Homo sapiens) EC50 for CCC1c2ccc(Br)cc2-n2cccc2C(=O)N1C (stereo not drawn) [Example 214]
> 1000 nM
